Values compiled from patent US12319655B2.

Biological target: A-Raf kinase (SEQ. ID No: 1) (Homo sapiens (Human), UniProt P10398, Y301D/Y302D)
Sequence (P10398 other isoform, or with tags, fused parts or gaps Y301D (already in the parent)/Y302D (already in the parent)): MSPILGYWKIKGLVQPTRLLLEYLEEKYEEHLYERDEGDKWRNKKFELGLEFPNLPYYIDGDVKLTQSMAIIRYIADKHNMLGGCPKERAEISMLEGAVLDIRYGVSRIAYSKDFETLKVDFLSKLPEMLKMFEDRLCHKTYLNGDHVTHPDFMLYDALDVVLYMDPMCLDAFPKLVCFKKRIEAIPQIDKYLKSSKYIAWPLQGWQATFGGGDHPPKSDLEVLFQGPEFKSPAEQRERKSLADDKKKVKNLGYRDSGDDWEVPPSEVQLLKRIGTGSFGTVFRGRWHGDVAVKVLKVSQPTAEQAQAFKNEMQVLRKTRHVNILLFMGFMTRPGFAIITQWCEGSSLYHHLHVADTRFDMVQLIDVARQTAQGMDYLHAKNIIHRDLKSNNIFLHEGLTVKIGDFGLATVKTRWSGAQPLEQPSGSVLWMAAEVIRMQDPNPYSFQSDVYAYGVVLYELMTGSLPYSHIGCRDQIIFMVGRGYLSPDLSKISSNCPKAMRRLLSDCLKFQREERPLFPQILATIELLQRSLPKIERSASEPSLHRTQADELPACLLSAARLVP
Experiment: Biochemical Assay for A-Raf (2)
Details: Table J, biochemical assay (2); read-out: ARAF (2)
parameter: IC50

>>> result("Cc1ccc(NC(=O)c2ccnc(C(C)(C)F)c2)cc1-c1ccnc(-c2ccnc(C(=O)NCCO)c2)c1")
"1 to 10 µM"
>>> result("Cc1ncc(NC(=O)c2ccnc(C(C)(F)F)c2)cc1-c1ccnc(-c2ccnc(NC(=O)C3CC3)c2)c1")
"0.5 to 1 µM"
>>> result("CNC(=O)c1cc(-c2cncc(-c3cc(NC(=O)c4ccnc(C(C)(C)C#N)c4)ccc3C)c2)ccn1")
"1 to 10 µM"
>>> result("[2H]C([2H])([2H])NC(=O)c1cc(-c2cc(-c3cc(NC(=O)c4ccnc(C(C)(C)F)c4)ccc3C)cc(C)n2)ccn1")
"1 to 10 µM"
>>> result("CNC(=O)c1cc(-c2cc(-c3cc(NC(=O)c4ccnc(C(C)(C)F)c4)c(F)cc3C)ccn2)ccn1")
"1 to 10 µM"

Given the molecule `CNC(=O)c1cc(-c2cc(-c3cc(NC(=O)c4ccnc(C5(C#N)CC5)c4)cnc3C)ccn2)ccn1` , what is its reported IC50?
0.1 to 0.5 µM

Input `[2H]C([2H])([2H])NC(=O)c1cc(-c2cc(-c3cc(NC(=O)c4ccnc(C5(F)CC5)c4)ccc3C)cc(C)n2)ccn1`
1 to 10 µM

Input `CNC(=O)c1cc(-c2cc(-c3cc(F)cc(NC(=O)c4ccnc(C(C)(C)F)c4)c3F)ccn2)ccn1`
1 to 10 µM

Input `CNC(=O)c1cc(-c2cc(-c3cc(NC(=O)c4ccnc(C(C)(C)F)c4)c(F)cc3F)ccn2)ccn1`
0.5 to 1 µM

Input `CNC(=O)c1cc(-c2cc(-c3cc(NC(=O)c4ccnc(C(C)(C)F)c4)ccc3Cl)ccn2)ccn1`
1 to 10 µM

Input `CNC(=O)c1cc(-c2cncc(-c3cc(NC(=O)c4ccnc(C(C)C)c4)ccc3C)c2)ncn1`
1 to 10 µM

Input `CNC(=N)c1cc(-c2cc(-c3cc(NC(=O)c4ccnc(C(C)(C)F)c4)ccc3C)ccn2)ccn1`
1 to 10 µM

Input `CNC(=O)c1cc(-c2cncc(-c3cc(NC(=O)c4ccnc(C(C)(F)F)c4)ccc3C)c2)ccn1`
1 to 10 µM

Input `Cc1ccc(NC(=O)c2ccnc(C(C)(C)F)c2)cc1-c1ccnc(-c2ccnc(C#N)c2)c1`
1 to 10 µM

Input `Cc1ccc(NC(=O)c2ccnc(C(C)(C)C#N)c2)cc1-c1ccnc(-c2ccnc(NC(=O)C3CC3)c2)c1`
0.1 to 0.5 µM

Input `CNC(=O)c1cc(-c2cc(-c3cc(NC(=O)c4ccnc(C(C)C)c4)cnc3C)ccn2)ccn1`
1 to 10 µM

Input `Cc1ccc(NC(=O)c2cccc(C(F)(F)F)c2)cc1-c1ccnc(-c2ccnc(NC(=O)C3CC3)c2)c1`
0.1 to 0.5 µM

Input `Cc1ccc(NC(=O)c2cn(C)nc2C(F)(F)F)cc1-c1cncc(-c2ccnc(NC(=O)C3CC3)c2)c1`
1 to 10 µM

Input `CNC(=O)c1cc(-c2cc(-c3cc(NC(=O)c4ccnc(C5(F)CC5)c4)ccc3C)ccn2)ccn1`
0.1 to 0.5 µM

Input `CNC(=O)c1cc(-c2cc(-c3cc(NC(=O)c4ccnc(C(C)(C)F)c4)cc(F)c3F)ccn2)ccn1`
1 to 10 µM

Input `Cc1cc(-c2cc(NC(=O)c3ccnc(C(C)(C)F)c3)ccc2C)cc(-c2ccnc(C(N)=O)c2)n1`
0.5 to 1 µM

Input `CNC(=O)c1cc(-c2cc(-c3cc(NC(=O)c4ccnc(C(C)(C)F)c4)ccc3C)c(F)cn2)ccn1`
1 to 10 µM

Input `Cc1ncc(NC(=O)c2ccnc(C3(C#N)CC3)c2)cc1-c1ccnc(-c2ccnc(NC(=O)C3CC3)c2)c1`
0.1 to 0.5 µM

Input `CNC(=O)c1cc(-c2cncc(-c3cc(NC(=O)c4ccnc(C(C)(F)F)c4)ccc3C)c2)ncn1`
1 to 10 µM
